Assignment: determine reported Relative binding activity for the given binders.
# EXPERIMENTAL_SYSTEM: T1, recombinant human soluble gpNMB (recombinant human gpNMB-FLAG-His) (human, UniProt Q14956 23-498)
# T1 sequence: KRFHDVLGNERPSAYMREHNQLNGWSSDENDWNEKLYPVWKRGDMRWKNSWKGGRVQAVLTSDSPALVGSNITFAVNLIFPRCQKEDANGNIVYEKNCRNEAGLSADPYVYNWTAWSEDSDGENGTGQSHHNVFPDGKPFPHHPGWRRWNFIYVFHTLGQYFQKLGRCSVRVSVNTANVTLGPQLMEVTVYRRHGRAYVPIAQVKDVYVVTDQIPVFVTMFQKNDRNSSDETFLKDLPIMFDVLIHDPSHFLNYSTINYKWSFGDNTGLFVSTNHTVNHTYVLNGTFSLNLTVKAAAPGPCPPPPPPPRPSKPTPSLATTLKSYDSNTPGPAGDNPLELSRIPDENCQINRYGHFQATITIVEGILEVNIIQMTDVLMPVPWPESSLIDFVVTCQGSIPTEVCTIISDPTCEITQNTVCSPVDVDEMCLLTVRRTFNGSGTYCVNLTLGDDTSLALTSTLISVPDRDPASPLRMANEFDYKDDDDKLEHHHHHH
# ASSAY_SUMMARY: antigen ELISA, vs hGPN06-1_H1L1
Keep it simple and answer with nothing but the number.

Looking up hGPN06-1_H1L1 VH T58A (antibody, V domains shown) VH: QVQLVQSGAEVKKPGASVKVSCKASGYTFTDNWMGWVKQRPGQGLEWIGAIDPSDSFANYNQNFKGRVTMTVDTSISTAYMELSRLRSDDSAVYFCTRSGYYGSPKLGGDYWGQGTLVTVSS VL: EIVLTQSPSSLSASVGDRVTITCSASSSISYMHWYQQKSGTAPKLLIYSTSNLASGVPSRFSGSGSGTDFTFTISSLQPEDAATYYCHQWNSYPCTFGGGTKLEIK , I see its Relative binding activity listed as 0.04

According to the records, this binder hGPN06-1_H1L1 VH G66A (antibody, V domains shown) VH: QVQLVQSGAEVKKPGASVKVSCKASGYTFTDNWMGWVKQRPGQGLEWIGAIDPSDSFTNYNQNFKARVTMTVDTSISTAYMELSRLRSDDSAVYFCTRSGYYGSPKLGGDYWGQGTLVTVSS VL: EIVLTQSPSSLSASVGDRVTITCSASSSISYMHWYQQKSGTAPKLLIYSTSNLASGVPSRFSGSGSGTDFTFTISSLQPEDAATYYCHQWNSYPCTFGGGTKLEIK displays Relative binding activity of 1.09

Given item hGPN06-1_H1L1 VH D31A (antibody, V domains shown) VH: QVQLVQSGAEVKKPGASVKVSCKASGYTFTANWMGWVKQRPGQGLEWIGAIDPSDSFTNYNQNFKGRVTMTVDTSISTAYMELSRLRSDDSAVYFCTRSGYYGSPKLGGDYWGQGTLVTVSS VL: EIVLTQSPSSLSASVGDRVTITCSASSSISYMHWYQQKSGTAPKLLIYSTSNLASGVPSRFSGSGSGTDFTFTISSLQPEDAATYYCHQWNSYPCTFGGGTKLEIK , the value recorded as its Relative binding activity is 1.26

// Relative binding activity value for hGPN06-1_H1L1 VH N32A (antibody, V domains shown) VH: QVQLVQSGAEVKKPGASVKVSCKASGYTFTDAWMGWVKQRPGQGLEWIGAIDPSDSFTNYNQNFKGRVTMTVDTSISTAYMELSRLRSDDSAVYFCTRSGYYGSPKLGGDYWGQGTLVTVSS VL: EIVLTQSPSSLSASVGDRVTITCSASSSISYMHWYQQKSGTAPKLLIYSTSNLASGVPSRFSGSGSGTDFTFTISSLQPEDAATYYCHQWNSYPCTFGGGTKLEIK : 0.35

The recorded Relative binding activity for entry hGPN06-1_H1L1 VH F64A (antibody, V domains shown) VH: QVQLVQSGAEVKKPGASVKVSCKASGYTFTDNWMGWVKQRPGQGLEWIGAIDPSDSFTNYNQNAKGRVTMTVDTSISTAYMELSRLRSDDSAVYFCTRSGYYGSPKLGGDYWGQGTLVTVSS VL: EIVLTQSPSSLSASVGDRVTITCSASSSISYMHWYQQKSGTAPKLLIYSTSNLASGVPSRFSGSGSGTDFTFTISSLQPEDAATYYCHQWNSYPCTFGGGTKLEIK equals 1.11
